Where do these numbers come from? They come from patent US8445636B2.

- Tested on: E. aerogenes ATCC 35029
- Format: cell-based
- Condition Label: ATCC 35029, pH 7.4
Non-standard residues stand in square brackets, D forms with d. Residues, ends and D or L forms follow the SMILES beside them. *: point of attachment. Lauroyl = CCCCCCCCCCCC(=O)*; Decanoyl = CCCCCCCCCC(=O)*
Please go through the items and note down their Minimal Inhibitory Concentration, E. aerogenes ATCC 35029.
Write it as a number; the unit µM goes unstated.

**Q:** Give Minimal Inhibitory Concentration, E. aerogenes ATCC 35029 for CCCCCCCCCC(=O)N[C@H](CC(C)C)C(=O)N[C@@H](CCCCN)C(=O)N[C@@H](CCCCN)C(=O)N[C@H](CC(C)C)C(=O)N[C@H](CC(C)C)C(=O)N[C@@H](CCCCN)C(=O)N[C@@H](CCCCN)C(=O)N[C@H](CC(C)C)C(=O)N[C@H](CC(C)C)C(=O)N[C@@H](CCCCN)C(=O)N[C@@H](CCCCN)C(=O)N[C@H](CC(C)C)C(N)=O [lipopeptide 21] (Decanoyl-[dL]KK[dL][dL]KK[dL][dL]KK[dL]-NH2)
**A:** 50

**Q:** Give Minimal Inhibitory Concentration, E. aerogenes ATCC 35029 for CCCCCCCCCCCC(=O)N[C@H](CC(C)C)C(=O)N[C@@H](CCCCN)C(=O)N[C@@H](CCCCN)C(=O)N[C@H](CC(C)C)C(=O)N[C@H](CC(C)C)C(=O)N[C@@H](CCCCN)C(=O)N[C@@H](CCCCN)C(=O)N[C@H](CC(C)C)C(=O)N[C@H](CC(C)C)C(=O)N[C@@H](CCCCN)C(=O)N[C@@H](CCCCN)C(=O)N[C@H](CC(C)C)C(N)=O [lipopeptide 22] (Lauroyl-[dL]KK[dL][dL]KK[dL][dL]KK[dL]-NH2)
**A:** 50
